test-target: UniProtKB Q02763
Sequence (Q02763 23-1124): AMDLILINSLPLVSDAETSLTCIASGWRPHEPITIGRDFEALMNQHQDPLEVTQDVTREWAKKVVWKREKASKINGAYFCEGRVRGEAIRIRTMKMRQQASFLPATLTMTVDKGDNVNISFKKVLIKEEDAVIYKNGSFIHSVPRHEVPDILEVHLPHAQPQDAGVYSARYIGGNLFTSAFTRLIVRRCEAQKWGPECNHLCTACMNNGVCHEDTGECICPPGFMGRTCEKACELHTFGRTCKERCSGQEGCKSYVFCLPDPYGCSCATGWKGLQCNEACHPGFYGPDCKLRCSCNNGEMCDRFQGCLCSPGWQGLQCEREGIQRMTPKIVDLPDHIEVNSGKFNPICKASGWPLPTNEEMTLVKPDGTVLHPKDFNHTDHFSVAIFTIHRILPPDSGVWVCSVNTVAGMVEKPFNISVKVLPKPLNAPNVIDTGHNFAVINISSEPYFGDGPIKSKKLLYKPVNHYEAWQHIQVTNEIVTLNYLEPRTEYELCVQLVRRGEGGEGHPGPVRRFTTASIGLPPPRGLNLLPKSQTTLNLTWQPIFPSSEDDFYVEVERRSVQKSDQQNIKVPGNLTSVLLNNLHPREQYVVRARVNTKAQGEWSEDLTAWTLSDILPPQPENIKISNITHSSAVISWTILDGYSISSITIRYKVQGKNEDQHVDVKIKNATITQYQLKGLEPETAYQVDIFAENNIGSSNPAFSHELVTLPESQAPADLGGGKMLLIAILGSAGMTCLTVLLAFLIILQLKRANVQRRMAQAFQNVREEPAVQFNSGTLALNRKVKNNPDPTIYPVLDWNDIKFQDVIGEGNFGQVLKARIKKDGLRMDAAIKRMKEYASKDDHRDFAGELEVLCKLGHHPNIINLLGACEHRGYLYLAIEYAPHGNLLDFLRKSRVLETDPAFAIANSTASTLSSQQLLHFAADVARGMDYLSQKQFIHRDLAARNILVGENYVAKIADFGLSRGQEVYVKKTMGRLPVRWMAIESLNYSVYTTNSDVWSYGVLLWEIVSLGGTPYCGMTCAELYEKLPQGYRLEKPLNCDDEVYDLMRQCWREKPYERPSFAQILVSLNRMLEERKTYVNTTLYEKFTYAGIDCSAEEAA
assay-readout: pIC50
Answers are plain numbers, as −log10 of the molar value.

# return pIC50 for `COc1ccc2c(c1)[C@]1(C[C@H]1c1ccc3c(/C=C/c4ccc(CN5C[C@@H](C)O[C@@H](C)C5)cc4)n[nH]c3c1)C(=O)N2` , test system: UniProtKB Q02763
6.96

* * *

System: DAOY cells
run-description: Combination therapy viability assay
experimental-setup: Homo sapiens, 72 h, read-out: IC50 of compound 2, DAOY, combined with CFI-400945 (10 nM)
assay-readout: IC50 (nM)
Numbers only, in nM.

* COc1cc([C@@H]2c3cc4c(cc3[C@@H](O[C@@H]3O[C@@H]5CO[C@@H](C)O[C@H]5[C@H](O)[C@H]3O)[C@H]3COC(=O)[C@H]23)OCO4)cc(OC)c1O [Etoposide, etoposide] | 800

# return IC50 for COc1cccc2c1C(=O)c1c(O)c3c(c(O)c1C2=O)C[C@@](O)(C(=O)CO)C[C@@H]3O[C@H]1C[C@H](N)[C@H](O)[C@H](C)O1 [Doxorubicin, doxorubicin] , test system: DAOY cells
199
